TARGET_OF_ASSAY: human adenosine A1 receptor (hA1R) (Homo sapiens)
Construct: Steve Hill (University of Nottingham, UK); host or cells: CHO cells stably expressing hA1R; membrane preparation
Sequence (P30542 1-326): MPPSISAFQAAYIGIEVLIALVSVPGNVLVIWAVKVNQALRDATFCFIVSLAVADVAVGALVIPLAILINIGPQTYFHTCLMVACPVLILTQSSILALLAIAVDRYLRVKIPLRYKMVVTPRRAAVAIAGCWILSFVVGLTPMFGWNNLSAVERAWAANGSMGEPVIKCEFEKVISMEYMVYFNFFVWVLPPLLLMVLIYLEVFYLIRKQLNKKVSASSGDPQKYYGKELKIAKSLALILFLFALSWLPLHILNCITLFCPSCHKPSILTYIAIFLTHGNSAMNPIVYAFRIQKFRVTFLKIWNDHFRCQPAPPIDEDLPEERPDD
ASSAY_PROTOCOL: Competition association with [3H]-DPCPX, SPA technology
Assay type: binding
SETTINGS: 1/k off, 28 °C, 1 mM GTP present for LUF5834, CCPA, NECA
MEASURED_ENDPOINT: SPA RT (min)

sample_smiles=N#Cc1c(N)nc(SCc2ncc[nH]2)c(C#N)c1-c1ccc(O)cc1 result_number=2.0
sample_smiles=CCCn1c(=O)c2[nH]c(C3CCCC3)nc2n(CCCOC(=O)c2ccc(S(=O)(=O)F)cc2)c1=O result_number=156

(I) CCCn1c(=O)c2[nH]c(C3CCCC3)nc2n(CCC)c1=O
(II) OC[C@H]1O[C@@H](n2cnc3c(NC4CCCC4)nc(Cl)nc32)[C@H](O)[C@@H]1O
Input line: Lower value of SPA RT belongs to which: I or II ? # answer = label of selected item
Output line: II
